# credit: the supplement of paper PMC12494721

tested on: Escherichia coli IAI1; test: fold change of Putrescine concentration vs plate DMSO controls (fold change (ratio)); higher = more amine produced, active = hit call of the paper (significant change in both replicates, either direction); details: incubation time: 27 h, anaerobic, 37 °C
Where a name gives a salt, the structure may show the parent alone.
Use 1 as the dividing line for fold change of Putrescine concentration, with the line itself on the t side and lower values as f.

{"compound": "CC(Oc1c(Cl)cccc1Cl)C1=NCCN1 (stereo unspecified) [Lofexidine] (20 µM)", "assigned-category": "t"}
{"compound": "N[C@@H]1CCCCN(c2c(F)cc3c(=O)c(C(=O)O)cn(C4CC4)c3c2Cl)C1 [Besifloxacin hydrochloride] (20 µM)", "assigned-category": "f"}
{"compound": "NCc1ccccc1CC(=O)N[C@@H]1C(=O)N2C(C(=O)O)=C(CSc3nnnn3CC(=O)O)CS[C@H]12 [Ceforanide] (20 µM)", "assigned-category": "t"}
{"compound": "CCOC(=O)C1=C(C)NC(C)=C(C(=O)OC)C1c1cccc([N+](=O)[O-])c1 (stereo unspecified) [Nitrendipine] (20 µM)", "assigned-category": "t"}
{"compound": "COc1cc(OC)c(C(=O)CCCN2CCCC2)c(OC)c1 [Buflomedil hydrochloride] (20 µM)", "assigned-category": "t"}

====

system: Escherichia coli IAI1; assay: fold change of Putrescine concentration vs plate DMSO controls (fold change (ratio)); higher = more amine produced, active = hit call of the paper (significant change in both replicates, either direction); settings: incubation time: 27 h, anaerobic, 37 °C
Use 1 as the dividing line for fold change of Putrescine concentration, with the line itself on the true side and lower values as false.

{"molecule": "COc1ccnc(C[S+]([O-])c2nc3cc(OC(F)F)ccc3[nH]2)c1OC (configuration not stated) [Pantoprazole sodium] (20 µM)", "target-system": "Escherichia coli IAI1", "assigned-category": "true"}
{"molecule": "COC(=O)Nc1nc2cc(C(=O)c3ccc(F)cc3)ccc2[nH]1 [Flubendazol] (20 µM)", "target-system": "Escherichia coli IAI1", "assigned-category": "false"}
{"molecule": "C[C@@](Cc1ccc(O)c(O)c1)(NN)C(=O)O [Carbidopa] (20 µM)", "target-system": "Escherichia coli IAI1", "assigned-category": "true"}
{"molecule": "CCC(C)C(C(=O)OCC[N+](C)(CC)CC)c1ccccc1 (configuration not stated) [Valethamate bromide] (20 µM)", "target-system": "Escherichia coli IAI1", "assigned-category": "true"}

====

test system: Ruminococcus gnavus DSM 108212; experiment: fold change of Tryptamine concentration vs plate DMSO controls (fold change (ratio)); higher = more amine produced, active = hit call of the paper (significant change in both replicates, either direction); details: incubation time: 27 h, anaerobic, 37 °C
Where a name gives a salt, the structure may show the parent alone.
measurement-type: fold change of Tryptamine concentration

{"molecule": "Oc1c(Cl)cc(Cl)c(Cl)c1Cc1c(O)c(Cl)cc(Cl)c1Cl [Hexachlorophene] (20 µM)", "measurement-type": "fold change of Tryptamine concentration", "observed-value": 0.0326}
{"molecule": "O=C1CCC(N2C(=O)c3ccccc3C2=O)C(=O)N1 (stereo not drawn) [Thalidomide] (20 µM)", "measurement-type": "fold change of Tryptamine concentration", "observed-value": 0.971}
{"molecule": "CN1CCC(=C2c3ccccc3CC(=O)c3sccc32)CC1 [Ketotifen fumarate] (20 µM)", "measurement-type": "fold change of Tryptamine concentration", "observed-value": 0.991}

====

fold change of Tryptamine concentration: recorded values
tested on: Clostridium sporogenes DSM 1664; assay: fold change of Tryptamine concentration vs plate DMSO controls (fold change (ratio)); higher = more amine produced, active = hit call of the paper (significant change in both replicates, either direction); settings: incubation time: 27 h, anaerobic, 37 °C
Structures can show the parent of a compound that is named as a salt.

{"compound": "CCCCCCCN(CC)CCCC(O)c1ccc(NS(C)(=O)=O)cc1 (stereo not drawn) [Ibutilide fumarate] (20 µM)", "fold change of Tryptamine concentration": 0.904}
{"compound": "CCC(=O)O[C@]1(C(=O)SCF)[C@H](C)C[C@H]2[C@@H]3C[C@H](F)C4=CC(=O)C=C[C@]4(C)[C@@]3(F)[C@@H](O)C[C@@]21C [Fluticasone propionate] (20 µM)", "fold change of Tryptamine concentration": 0.989}
{"compound": "CN(C)c1ccc2nc3ccc(=[N+](C)C)cc-3sc2c1 [Methylene blue] (20 µM)", "fold change of Tryptamine concentration": 0.998}
{"compound": "CC1(C)O[C@@H]2[C@@H](CO[C@@]3(COS(N)(=O)=O)OC(C)(C)O[C@@H]23)O1 [Topiramate] (20 µM)", "fold change of Tryptamine concentration": 0.998}
{"compound": "COc1ccc2c(c1)c(CC(=O)OCC(=O)O)c(C)n2C(=O)c1ccc(Cl)cc1 [Acemetacin] (20 µM)", "fold change of Tryptamine concentration": 0.98}
{"compound": "Cc1ccccc1N1C(=O)c2cc(S(N)(=O)=O)c(Cl)cc2NC1C (stereo not drawn) [Metolazone] (20 µM)", "fold change of Tryptamine concentration": 0.993}
{"compound": "O=C(NCCCN1CCOCC1)c1ccc(Cl)cc1 [Eprobemide] (20 µM)", "fold change of Tryptamine concentration": 1.02}
{"compound": "NCc1ccc(S(N)(=O)=O)cc1 [Mafenide hydrochloride] (20 µM)", "fold change of Tryptamine concentration": 0.888}

====

tested on: Ruminococcus gnavus DSM 108212; test: fold change of Tryptamine concentration vs plate DMSO controls (fold change (ratio)); higher = more amine produced, active = hit call of the paper (significant change in both replicates, either direction); conditions: incubation time: 27 h, anaerobic, 37 °C
Structures can show the parent of a compound that is named as a salt.

{"molecule": "C=CC[C@@H]1/C=C(\\C)C[C@H](C)C[C@H](OC)[C@H]2O[C@@](O)(C(=O)C(=O)N3CCCC[C@H]3C(=O)O[C@H](/C(C)=C/[C@@H]3CC[C@@H](O)[C@H](OC)C3)[C@H](C)[C@@H](O)CC1=O)[C@H](C)C[C@@H]2OC [Tacrolimus Monohydrate] (20 µM)", "fold change of Tryptamine concentration": 1.01}
{"molecule": "COc1ccc(Cl)cc1C(=O)NCCc1ccc(S(=O)(=O)NC(=O)NC2CCCCC2)cc1 [Glibenclamide] (20 µM)", "fold change of Tryptamine concentration": 1.06}
{"molecule": "NC(=O)OCC(O)COc1ccc(Cl)cc1 (centres undefined) [Chlorphensin carbamate] (20 µM)", "fold change of Tryptamine concentration": 0.995}
{"molecule": "Cc1ccc(-c2cc(C(F)(F)F)nn2-c2ccc(S(N)(=O)=O)cc2)cc1 [Celecoxib] (20 µM)", "fold change of Tryptamine concentration": 0.927}
{"molecule": "CC(=O)OCC(=O)NCCCOc1cccc(CN2CCCCC2)c1 [Roxatidine acetate hydrochloride] (20 µM)", "fold change of Tryptamine concentration": 0.972}
{"molecule": "C=CCc1ccccc1OCC(O)CNC(C)C (centres undefined) [Alprenolol hydrochloride] (20 µM)", "fold change of Tryptamine concentration": 1.08}
{"molecule": "CC(C(=O)O)c1ccc(C(=O)c2ccccc2)s1 (centres undefined) [Tiaprofenic acid] (20 µM)", "fold change of Tryptamine concentration": 1.04}
{"molecule": "CCC1=C(C)CN(C(=O)NCCc2ccc(S(=O)(=O)NC(=O)N[C@H]3CC[C@H](C)CC3)cc2)C1=O [Glimepiride] (20 µM)", "fold change of Tryptamine concentration": 0.995}
{"molecule": "CNc1ncnc2c1ncn2[C@@H]1O[C@H](CO)[C@@H](O)[C@H]1O [N6-methyladenosine] (20 µM)", "fold change of Tryptamine concentration": 1.04}

====

tested on: Escherichia coli IAI1; test: growth (OD595) fold change vs plate DMSO controls (fold change (ratio)); higher = more growth; settings: incubation time: 27 h, anaerobic, 37 °C
measurement-type: growth

{"compound": "CC(=O)O[C@]1(C(C)=O)CC[C@H]2[C@@H]3C=C(Cl)C4=CC(=O)[C@@H]5C[C@@H]5[C@]4(C)[C@H]3CC[C@@]21C [Cyproterone acetate] (20 µM)", "observed-value": 0.908}
{"compound": "O=C1NS(=O)(=O)c2ccccc21 [Saccharin] (50 µM)", "observed-value": 1.02}
{"compound": "COc1cc(C(=O)NC2CCCNC2)cc(OC)c1OC (stereo not drawn) [Troxipide] (20 µM)", "observed-value": 1.02}
{"compound": "O=C(Nc1cccc2c(=O)cc(-c3nnn[nH]3)oc12)c1ccc(OCCCCc2ccccc2)cc1 [Pranlukast] (20 µM)", "observed-value": 1.07}
{"compound": "CC(C)C[C@H](NC(=O)[C@@H](O)[C@H](N)Cc1ccccc1)C(=O)O [Ubenimex] (20 µM)", "observed-value": 0.971}
{"compound": "CN(C)/N=N/c1[nH]cnc1C(N)=O [Dacarbazine] (20 µM)", "observed-value": 1}
{"compound": "OC[C@H]1OC(O)[C@H](O)[C@H](O)[C@@H]1O (stereo partly drawn) [D-allose] (50 µM)", "observed-value": 0.999}
{"compound": "OC[C@H]1O[C@@H](c2ccc(Cl)c(Cc3ccc(O[C@H]4CCOC4)cc3)c2)[C@H](O)[C@@H](O)[C@@H]1O [Empagliflozin] (20 µM)", "observed-value": 1}
